Taken from PubChem BioAssay.

Tested on: Botulinum neurotoxin type F light chain protease (Clostridium botulinum)
measurement notes: Botulinum neurotoxin type F light chain protease inhibition, multiplex microsphere flow cytometry, validation set (AID 588459)
condition label: multiplex microsphere protease substrate cleavage assay, at 10 µM, hits give high values
assay metric: inhibition (%)
Just the number in %, nothing appended.

{"columns": ["compound", "target or test system", "units", "inhibition"],
 "data": [
  ["O=Cc1ccc(N2CCCCC2)cc1", "Botulinum neurotoxin type F light chain protease (Clostridium botulinum)", "%", -0.8],
  ["Cn1c2ccccc2c2cc(/C=C(\\NC(=O)c3ccccc3)C(=O)O)ccc21", "Botulinum neurotoxin type F light chain protease (Clostridium botulinum)", "%", -0.2],
  ["O=C1CCCC(=O)C1=Cc1c[nH]c2ccccc12", "Botulinum neurotoxin type F light chain protease (Clostridium botulinum)", "%", 3]
]}

Input: Look up inhibition: O=c1c2ccccc2nc2n1-c1ccccc1CCC2
Output: 3.5

Input: For the compound COc1ccccc1N1C(=O)C2CC(C)=C(C)CC2C1=O (centres undefined) , what inhibition is on record?
Output: -2.6

Input: Value lookup for inhibition; key = Nc1ccc([As](=O)(O)O)cc1
Output: -3.5

Input: Which inhibition value is on record for O=C1CN(O)C=C2N=c3ccccc3=C2N1c1ccc([N+](=O)[O-])cc1 ?
Output: -2.6

Input: I'd like to know its inhibition. The compound in question is Cc1ccc(O)c(CCc2ccccc2)n1
Output: 1.3

Input: Find the recorded inhibition belonging to O=P(c1ccccc1)(c1ccccc1)c1nc(-c2ccc(Cl)cc2)oc1N1CCOCC1 and report it.
Output: -1

Input: Tell me the measured inhibition of COc1ccc(-c2coc3cc(OC(=O)N4CCOCC4)ccc3c2=O)cc1 , please.
Output: 4.3

Input: # query: inhibition of entry Cc1ccccc1NC(=O)c1c(C)cc(=O)oc1C
Output: -0.8

Input: Requested field: inhibition. Item: COC(=O)c1ccc2c(c1)C(=O)/C(=C/c1ccc(O)cc1)O2
Output: -0.8

Input: Need inhibition of O=C(CCN1CCC(c2ccccc2)C1)c1ccc2c(c1)OCCO2 (centres undefined) , thanks.
Output: 4.6

Input: Field request: inhibition | item: CCOc1ccc(N2C(=O)CNC2=S)cc1
Output: -1.7

Input: Look at this compound and give its reported inhibition. COc1cc(NC(=O)N[C@@H](Cc2ccccc2)C(=O)O)cc(OC)c1
Output: 1.2

Input: Any idea what inhibition was measured for CCc1cc2c(=O)c(-c3nc(C)cs3)coc2cc1OC(C)C(=O)NCCO (centres undefined) ?
Output: -3.3

Input: Would you mind telling me what inhibition value was observed for O=C(/C=C/c1ccc(F)cc1)N1CC[C@@]2(O)CCCC[C@H]2C1 ?
Output: -2.9

Input: inhibition lookup needed for CCOC(=O)c1ccccc1NC(=O)c1ccc(F)cc1 , thanks.
Output: -1.8

Input: Endpoint output: inhibition of O=C(CCCCC(=O)NC1CCCC1)NC1CCCC1 . Value?
Output: 1.5

Input: Can you look up the measured inhibition of CSCCC1NC2(C(=O)Nc3ccc(Cl)cc32)[C@@H]2C(=O)N(C3CCCC3)C(=O)[C@H]12 (some centres undefined) for me?
Output: 0.8

###

Each entry below lists one item and its recorded inhibition value.
System: Botulinum neurotoxin type F light chain protease (Clostridium botulinum)
measurement notes: Botulinum neurotoxin type F light chain protease inhibition, multiplex microsphere flow cytometry, validation set (AID 588459)
condition label: multiplex microsphere protease substrate cleavage assay, at 10 µM, hits give high values
The reply should be a number in %, with the unit left off.

{"columns": ["compound", "assay metric", "units", "experimental value"],
 "data": [
  ["COc1ccc(Cc2noc(CN(C)CC3(N4CCOCC4)CCCCC3)n2)cc1OC", "inhibition", "%", 7.7]
]}

Input: Fill blank: measured inhibition of the compound O=C(NCc1ccccc1Cl)NC(=O)c1ccccc1 is ____.
Output: -1.4

Input: Looking for the measured inhibition of Cc1cccc(C(=O)c2cccc(C)c2)c1 , can you help?
Output: -4.8
